system: UWB1 cells; test: cells; conditions: read-out: IC50 (μM) UWB1 cells, UWB1 cell viability
EXPERIMENTAL_ENDPOINT: IC50

structure_smiles=C=C1[C@H](O)[C@H](O)[C@@H]2[C@](C)(C(=O)C=C[C@@]2(C)C(=O)OC)[C@H]1CC(=O)OC endpoint_value="> 10 µM"

Given COC(=O)C[C@H]1[C@]2(C)C3=C(C)[C@H](c4ccoc4)C[C@H]3O[C@@H]2[C@H](O)[C@@H]2[C@]1(C)C(=O)C=C[C@@]2(C)C(=O)OC , state its recorded IC50.
> 10 µM

Given COC(=O)C[C@H]1[C@]2(C)C3=C(C)[C@H](c4ccoc4-c4ccccc4OC)C[C@H]3O[C@@H]2[C@H](O)[C@H]2C(C)=CCC(=O)[C@]12C , state its recorded IC50.
> 10 µM
